Source: patent US11066414B2

tested on: TNFα; assay: Cot Monocyte TNFα Cell Based Assay; conditions: Homo sapiens, Monocyte, read-out: EC50 TNF, LPS-stimulated human monocytes, TNFα
MEASUREMENT_NAME: EC50 (nM)

Here are 4 molecules together with their reported answers.
# MOLECULE, TARGET_UNDER_TEST, MEASURED
rows = [
    ("N#CCC[C@@H](Nc1c(C#N)cnc2c(C#N)cc(N[C@H](c3cn(C4CC4)nn3)c3csc4c3CCN(C3COC3)C4)cc12)c1ccccc1 [Example 414]", "TNFα", 35),
    ("Cc1nc(F)ccc1[C@H](Nc1cc(Cl)c2ncc(C#N)c(NCC(C)(C)C)c2c1)c1cn(C2(C(=O)O)CC2)nn1 [Example 517]", "TNFα", 1000),
    ("Cc1nc(F)ccc1[C@H](Nc1cc(Cl)c2ncc(C#N)c(NCC(C)(C)C)c2c1)c1cn(C2CC2)nn1 [Example 716]", "TNFα", 54),
    ("Cn1ccc2c([C@H](Nc3cc(Cl)c4ncc(C#N)c(NCC(C)(C)C)c4c3)c3cn(C4CC4)nn3)ccnc21 [Example 519]", "TNFα", 158),
]

[P] N#Cc1cnc2c(Cl)cc(N[C@@H](c3cscn3)c3cn(Cc4ccccn4)nn3)cc2c1Nc1ccc(F)c(Cl)c1 [Example 316]
[Q] Cn1ccc2c([C@H](Nc3cc(C#N)c4ncc(C#N)c(NCC(C)(C)C)c4c3)c3cn(C4(C(F)(F)F)CC4)nn3)cccc2c1=O [Example 631]
// which entry has the larger EC50 value, P or Q ? Let me know the label of the one you choose.
P
(P: 298 nM, Q: 32 nM)

* * *

target: UniProtKB P41279; assay: High Throughput Cot Biochemical Assay; conditions: IC50 HTRF, Cot HTRF (TR-FRET) biochemical assay
MEASUREMENT_NAME: IC50 (µM)

[a] CC(C)(C)N1CCC(n2cc([C@@H](Nc3cc(Cl)c4ncc(C#N)c(Nc5ccc(F)c(Cl)c5)c4c3)c3cnco3)nn2)CC1 [Example 299]
[b] N#Cc1cnc2c(Cl)cc(NC(c3cccnc3)c3cn([C@@H]4CCN(C(=O)OCc5ccccc5)C4)nn3)cc2c1Nc1ccc(F)c(Cl)c1 (stereo partly drawn) [Example 400]
[c] Cc1cncc([C@H](Nc2cc(Cl)c3ncc(C#N)c(Nc4ccc(F)c(Cl)c4)c3c2)c2cn(C3CCN(C(C)(C)C)CC3)nn2)c1 [Example 250]
Could you please sort these 3 entries by IC50 from high to low? To answer, arrange all of the labels according to the requested order.
b, a, c

* * *

tested on: TNFα; test: Cot Monocyte TNFα Cell Based Assay; conditions: Homo sapiens, Monocyte, read-out: EC50 TNF, LPS-stimulated human monocytes, TNFα TR-FRET
pEC50: −log10 of the molar value.
MEASUREMENT_NAME: pEC50

Completed entries (count: 2):
# MOLECULE, pEC50
data = [
    ("CC(C)(C)CNc1c(C#N)cnc2c(C#N)cc(N[C@@H](c3ccc(C#N)nc3)c3cn(C4(C(F)(F)F)CC4)nn3)cc12 [Example 826]", 6.00),
    ("CC(C)(C)CNc1c(C#N)cnc2c(C#N)cc(N[C@H](c3cn(C4(C(F)(F)F)CC4)nn3)c3cccc4c(=O)n(CC(F)(F)F)ccc34)cc12 [Example 875]", 6.78),
]

[1] Cc1nc(F)ccc1[C@H](Nc1cc(C#N)c2ncc(C#N)c(NCC(C)(C)C(F)(F)F)c2c1)c1nnn(C23CC(C2)C3)c1F [Example 861]
[2] COc1ncccc1[C@H](Nc1cc(C#N)c2ncc(C#N)c(NCC(C)(C)C)c2c1)c1cn(C2(C(F)(F)F)CC2)nn1 [Example 885]
Quick check, higher pEC50 between 1 and 2 ? // caller expects the label of the chosen entry
1
(1: 7.40, 2: 6.88)

* * *

target: Human Cot (Homo sapiens (Human)); assay: High Throughput Cot Biochemical Assay; conditions: IC50 HTRF, Cot HTRF (TR-FRET) biochemical assay
Sequence (P41279 30-397): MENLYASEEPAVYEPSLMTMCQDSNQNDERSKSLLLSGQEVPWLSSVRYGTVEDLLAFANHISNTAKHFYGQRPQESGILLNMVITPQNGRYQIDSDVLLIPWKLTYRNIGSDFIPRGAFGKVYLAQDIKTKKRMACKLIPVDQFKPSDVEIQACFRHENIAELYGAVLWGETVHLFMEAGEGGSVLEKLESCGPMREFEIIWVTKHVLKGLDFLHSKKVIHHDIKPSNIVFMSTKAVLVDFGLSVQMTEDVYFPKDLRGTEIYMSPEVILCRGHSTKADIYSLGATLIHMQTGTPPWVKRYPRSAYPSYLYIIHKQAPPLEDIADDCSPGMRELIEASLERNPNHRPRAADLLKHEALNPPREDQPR
MEASUREMENT_NAME: IC50 (nM)

Example entries begin here.
# SMILES_INPUT, IC50 / nM
records = [
    ("[2H][C@](Nc1cc(Cl)c2ncc(C#N)c(Nc3cnc(F)c(Cl)c3)c2c1)(c1ccc(F)nc1)c1cn(C2CC2)nn1", 2),
    ("CC(C)(C)N1CCC(n2cc([C@@H](Nc3cc(Cl)c4ncc(C#N)c(Nc5ccc(F)c(Cl)c5)c4c3)C3=CCOCC3)nn2)CC1", 2),
    ("Cc1nc(F)ccc1[C@H](Nc1cc(C#N)c2ncc(C#N)c(NCC(C)(C)C)c2c1)c1cn(C2(CO)CC2)nn1", 2),
]

[I] Cc1n[nH]c2cccc([C@H](Nc3cc(C#N)c4ncc(C#N)c(NCC(C)(C)C)c4c3)c3cn(C4(C(F)(F)F)CC4)nn3)c12
[II] Cc1nc(F)ccc1[C@H](Nc1cc(C#N)c2ncc(C#N)c(NCC(C)(C)C)c2c1)c1cn(C2(CF)CC2)nn1
[III] N#Cc1cnc2c(Cl)cc(N[C@@H](C3=CCOCC3)c3cn(C4COC4)nn3)cc2c1Nc1ccc(Cl)c(Cl)c1F
Rank ascending by IC50. // rank by listing labels in the order requested
II, I, III

* * *

system: TNFα; experiment: Cot Monocyte TNFα Cell Based Assay; conditions: Homo sapiens, Monocyte, read-out: EC50 TNF, LPS-stimulated human monocytes, TNFα
MEASUREMENT_NAME: EC50 (nM)

Guide cases for EC50, answers given:
# MOLECULE, EC50 (nM)
records = [
    ("CC(C)(C)CNc1c(C#N)cnc2c(C#N)cc(N[C@H](c3cn(C4(CO)CC4)nn3)c3cccc4ncsc34)cc12", 155),
    ("Cc1nc(F)ccc1[C@H](Nc1cc(Cl)c2ncc(C#N)c(NCC(C)(C)C)c2c1)c1cn(C23CC(C2)C3)nn1", 40),
    ("Cc1nc(F)ccc1[C@H](Nc1cc(Cl)c2ncc(C#N)c(NCC(C)(C)C)c2c1)c1cn(CC(F)F)nn1", 78),
    ("CCc1nc(F)ccc1[C@H](Nc1cc(Cl)c2ncc(C#N)c(NCC(C)(C)C)c2c1)c1cn(C2(C(F)F)CC2)nn1", 78),
]

[I] CC(C)(C)CNc1c(C#N)cnc2c(C#N)cc(N[C@H](c3cn(C4(C(F)(F)F)CC4)nn3)c3cccc4ncccc34)cc12
[II] Cc1nc(F)ccc1[C@H](Nc1cc(Cl)c2ncc(C#N)c(NCC34CC(C3)C4)c2c1)c1cn(C2(C(F)F)CC2)nn1
[III] CC(C)n1ccc2c([C@H](Nc3cc(Cl)c4ncc(C#N)c(NCC(C)(C)C)c4c3)c3cn(C45CC(C4)C5)nn3)cccc2c1=O
[IV] COc1cc(N[C@H](c2cn(C3(C#N)CC3)nn2)c2ccc(F)nc2C)cc2c(NCC(C)(C)C)c(C#N)cnc12
[V] CC(C)(C)CNc1c(C#N)cnc2c(C#N)cc(N[C@H](c3cn(C4(C(N)=O)CCC4)nn3)c3cccc4ncccc34)cc12
Descending sort on EC50 required. In plain terms: list the labels in the order you were asked to.
IV, V, II, I, III
(IV: 826 nM, V: 433 nM, II: 254 nM, I: 69 nM, III: 33 nM)

[A] Cn1nccc1[C@H](Nc1cc(Cl)c2ncc(C#N)c(Nc3ccc(F)c(Cl)c3)c2c1)c1cn(C2CCN(C(C)(C)C)CC2)nn1
[B] N#Cc1cnc2c(Cl)cc(N[C@@H](c3cccnc3)c3cn(C4CC4)nn3)cc2c1Nc1cnc(F)c(F)c1
Could you determine which record has the numerically smaller EC50? Candidates: A and B Field: selected label. Fill in the label of the entry you choose.
A
(A: 84 nM, B: 211 nM)

* * *

tested on: TNFα; experiment: Cot Monocyte TNFα Cell Based Assay; conditions: Homo sapiens, Monocyte, read-out: EC50 TNF, LPS-stimulated human monocytes, TNFα TR-FRET
MEASUREMENT_NAME: EC50 (nM)

[I] CC(C)(C)CNc1c(C#N)cnc2c(C#N)cc(N[C@H](c3cn(C4(C(F)(F)F)CC4)nn3)c3cccc4c(=O)n(CC(F)F)ccc34)cc12 [Example 874]
[II] Cc1nc(F)ccc1[C@H](Nc1cc(C#N)c2ncc(C#N)c(NCC(C)(C)C)c2c1)c1nnn(C23CC(C2)C3)c1F [Example 954]
Response body: label of entry with the larger EC50; valid values I , II . Could you answer with the label of the item you picked?
I

[P] Cc1nc(F)ccc1[C@H](Nc1cc(Cl)c2ncc(C#N)c(NCC(C)(C)C(F)(F)F)c2c1)c1nnn(C2(C(F)F)CC2)c1F [Example 948]
[Q] C[C@@H](CF)n1cc([C@@H](Nc2cc(C#N)c3ncc(C#N)c(NCC(C)(C)C)c3c2)c2cccc3c(=O)n(C)ccc23)nn1 [Example 877]
Which gives the smaller EC50 number: P or Q ? Respond with the label that goes with your answer.
Q
(Q: 34 nM, P: 99 nM)
